Biological target: KRas G12V (Homo sapiens, UniProt P01116, G12V)
Sequence (P01116 1-169 isoform P01116-2 G12V): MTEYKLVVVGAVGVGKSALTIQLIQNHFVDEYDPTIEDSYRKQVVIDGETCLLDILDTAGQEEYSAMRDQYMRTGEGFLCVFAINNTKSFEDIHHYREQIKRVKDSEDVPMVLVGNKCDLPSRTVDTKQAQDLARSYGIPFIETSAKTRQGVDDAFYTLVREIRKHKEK
Assay: biochemical
pIC50: −log10 of the molar value.
Threshold rule: pIC50 greater than or equal to 6 is class 1; below that, class 0.

CCc1c(F)ccc2cc(O)cc(-c3ncc4c(NCCCc5cccnc5)nc(OC[C@@]56CCCN5C[C@H](F)C6)nc4c3F)c12; class 1

Is reported pIC50 greater than or equal to 6 here: Fc1c(-c2cccc3cccc(F)c23)ncc2c(NCc3cnn4c3OCCC4)nc(OCC34CCCN3CCC4)nc12
class 0

Is reported pIC50 greater than or equal to 6 here: C[C@@H]1C[C@@H](O)CN(c2nc(OCC34CCCN3CCC4)nc3c(F)c(-c4cccc5cccc(F)c45)ncc23)C1
class 0

Is reported pIC50 greater than or equal to 6 here: NS(=O)(=O)CC1CCCN(c2nc(OCC34CCCN3CCC4)nc3c(F)c(-c4cccc5cccc(C(F)F)c45)ncc23)C1 (centres unmarked)
class 0

Is reported pIC50 greater than or equal to 6 here: O=C1NCCC2(CCCN(c3nc(OCC45CCCN4CCC5)nc4c(F)c(-c5cccc6cccc(F)c56)ncc34)C2)N1 (centres unmarked)
class 0

====

Target: KRas G12C (Homo sapiens, UniProt P01116, G12C);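 note: binding to KRas assessed by TR-FRET displacement after one hour incubation at room temperature, potency fitted from percent-of-control values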
Sequence (P01116 1-169 isoform P01116-2 G12C): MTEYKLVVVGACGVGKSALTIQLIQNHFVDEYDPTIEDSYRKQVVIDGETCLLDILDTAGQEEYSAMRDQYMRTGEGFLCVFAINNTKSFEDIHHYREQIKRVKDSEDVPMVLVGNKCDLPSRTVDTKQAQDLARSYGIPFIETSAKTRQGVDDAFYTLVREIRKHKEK
Assay: biochemical
endpoint: IC50

Look over these answered cases.
CCc1c(F)ccc2cc(O)cc(-c3ncc4c(N5CCOC[C@@](C)(O)C5)nc(OCC5(CN6CCCC6)CC5)nc4c3F)c12 [Example 321]; ≤ 2 nM
C#Cc1c(F)ccc2cc(O)cc(-c3ncc4c(N5CCC[C@@](C)(O)C5)nc(OC[C@@]56CCCN5C[C@H](F)C6)nc4c3F)c12 [Example 13]; ≤ 2 nM

Look up IC50: CCc1c(F)ccc2cc(O)cc(-c3ncc4c(N5C[C@@H]6C[C@H](C5)[C@H](O)C6)nc(OCC5(CN6CCCC6)CC5)nc4c3F)c12 [Example 320]
≤ 2 nM

====

Molecular target: KRas G12V (Homo sapiens, UniProt P01116, G12V);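 note: KRas binding measured by TR-FRET displacement at room temperature, IC50 fitted from percent of control values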
Assay: biochemical
endpoint: IC50

Look over these answered cases.
CCc1c(F)ccc2cc(O)cc(-c3ncc4c(N5CCCn6nc(C(=O)N(C)C)c(Cl)c6C5)nc(OC[C@@]56CCCN5C[C@H](F)C6)nc4c3F)c12 [Example 504]; ≤ 2 nM
CCc1c(F)ccc2cc(O)cc(-c3ncc4c(NCc5ccc(=O)[nH]c5)nc(OC[C@@]56CCCN5C[C@H](F)C6)nc4c3F)c12 [Example 143]; ≤ 2 nM

Now look at this entry.
Look up IC50: Oc1cc(-c2ncc3c(N4CC5CC(O)CC4C5)nc(OC[C@@]45CCCN4C[C@H](F)C5)nc3c2F)c2c(Cl)c(F)ccc2c1 (stereo partly drawn) [Example 422]
≤ 2 nM

====

Biological target: KRas G12S (Homo sapiens, UniProt P01116, G12S);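 note: TR-FRET displacement binding to KRas, read after one hour incubation at room temperature, IC50 from four-parameter fit of percent of control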
Sequence (P01116 1-169 isoform P01116-2 G12S): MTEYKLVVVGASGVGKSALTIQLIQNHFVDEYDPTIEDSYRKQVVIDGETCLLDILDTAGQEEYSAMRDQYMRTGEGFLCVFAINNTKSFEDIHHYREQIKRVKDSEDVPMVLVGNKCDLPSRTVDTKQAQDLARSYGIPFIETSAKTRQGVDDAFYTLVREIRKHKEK
Test: biochemical
pIC50: −log10 of the molar value.
Threshold rule: pIC50 greater than or equal to 6 is Yes; below that, No.

Reference set (3 entries):
CCc1c(F)ccc2cc(O)cc(-c3ncc4c(N5CCCCC5)nc(OC[C@@]56CCCN5C[C@H](O)C6)nc4c3F)c12; Yes
N#Cc1cccnc1N1CCN(c2nc(OCC34CCCN3CCC4)nc3c(F)c(-c4cccc5cccc(F)c45)ncc23)CC1; No
O=CNC1CCN(c2nc(OCC34CCCN3CCC4)nc3c(F)c(-c4cccc5cccc(F)c45)ncc23)CC1; No

Shifting focus to the compound that follows.
Is reported pIC50 greater than or equal to 6 here: Fc1c(-c2cccc3cccc(F)c23)ncc2c(NCc3nnc4cccnn34)nc(OCC34CCCN3CCC4)nc12
No
